assay: Antiplatelet activity in New Zealand rabbit platelet-rich plasma assessed as inhibition of ADP-induced aggregation treated for 5 mins prior to ADP-challenge measured after 1 to 6 mins by spectrophotometric analysis; format: functional, cell-free; conditions: Oryctolagus cuniculus
Doc: threshold 10 µM (exclusive). Items with IC50 beneath it return criterion met; others return criterion not met.

QUERY: Just wondering, is IC50 of CCCN1C(=O)COc2cc(CN3CCOCC3)ccc21 below 10 µM?
RESULT: criterion met

QUERY: Just wondering, is IC50 of Clc1ccccc1CN1CCc2sccc2C1 below 10 µM?
RESULT: criterion met

QUERY: Just wondering, is IC50 of O=C1COc2cc(CN3CCN(c4ccc(F)cc4)CC3)ccc2N1Cc1ccccc1 below 10 µM?
RESULT: criterion not met

QUERY: Just wondering, is IC50 of O=C1COc2cc(CN3CCN(c4ccccc4F)CC3)ccc2N1Cc1ccccc1 below 10 µM?
RESULT: criterion not met

Others:
QUERY: Just wondering, is IC50 of CCCCN1C(=O)COc2cc(CN3CCN(c4ccc(F)cc4)CC3)ccc21 below 10 µM?
RESULT: criterion not met

QUERY: Just wondering, is IC50 of CCCN1C(=O)COc2cc(CN3CCN(c4ccccc4F)CC3)ccc21 below 10 µM?
RESULT: criterion not met

QUERY: Just wondering, is IC50 of CCN1C(=O)COc2cc(CN3CCOCC3)ccc21 below 10 µM?
RESULT: criterion not met

QUERY: Just wondering, is IC50 of CC(C)N1C(=O)COc2cc(CN3CCOCC3)ccc21 below 10 µM?
RESULT: criterion not met

QUERY: Just wondering, is IC50 of CCCN1C(=O)COc2cc(CN3CCN(Cc4ccccc4)CC3)ccc21 below 10 µM?
RESULT: criterion met

QUERY: Just wondering, is IC50 of CC(C)N1C(=O)COc2cc(CN3CCN(c4ccccc4)CC3)ccc21 below 10 µM?
RESULT: criterion not met

QUERY: Just wondering, is IC50 of CC(=O)Oc1ccccc1C(=O)O below 10 µM?
RESULT: criterion met

QUERY: Just wondering, is IC50 of CCN1C(=O)COc2cc(CN3CCN(c4ccccc4F)CC3)ccc21 below 10 µM?
RESULT: criterion not met

QUERY: Just wondering, is IC50 of CCCCN1C(=O)COc2cc(CN3CCN(c4ccccc4F)CC3)ccc21 below 10 µM?
RESULT: criterion not met

QUERY: Just wondering, is IC50 of CCCN1C(=O)COc2cc(CN3CCN(c4ccccc4)CC3)ccc21 below 10 µM?
RESULT: criterion not met

QUERY: Just wondering, is IC50 of CCN1C(=O)COc2cc(CN3CCN(c4ccc(F)cc4)CC3)ccc21 below 10 µM?
RESULT: criterion not met

QUERY: Just wondering, is IC50 of CC(C)N1C(=O)COc2cc(CN3CCN(c4ccc(F)cc4)CC3)ccc21 below 10 µM?
RESULT: criterion not met

Reference source for all entries: ChEMBL document CHEMBL3124780
